Data provenance is patent US9683018B2.

Below: a set of entries, each annotated with reported half-life.
measurement-protocol: in vitro
experimental-context: rat, plasma, Surrogate activity-based Plasma stability t½
Bridge positions count the residues as written; N and C are the ends. Square brackets hold non-standard residues; d marks the D form. Peptide text beside a SMILES is read from it. pGlu = O=C1CC[C@@H](C(=O)O)N1; d(hCys) = N[C@H](CCS)C(=O)O; hCys = N[C@@H](CCS)C(=O)O; Nle = CCCC[C@H](N)C(=O)O
Could you give me the number in h? Just the number is fine.

CCCC[C@@H]1NC(=O)[C@@H]2CCCN2C(=O)CNC(=O)[C@H](CCCCN)NC(=O)[C@H](NC(=O)[C@H](CO)NC(=O)[C@H](CC(C)C)NC(=O)[C@H](CCCNC(=N)N)NC(=O)[C@@H]2CCCN2C(=O)[C@H](CCCNC(=N)N)NC(=O)[C@@H]2CCC(=O)N2)CCSSC[C@@H](C(=O)O)NC1=O [Example 10, pE-R-P-R-L-S-(D-hC)*-K-G-P-Nle-C*-OH] ([pGlu]RPRLS[d(hCys)]KGP[Nle]C-OH; disulfide 7-12); 1.64

*Q* Fill blank: measured half-life of the compound CCCC[C@@H]1NC(=O)[C@@H]2CCCN2C(=O)CNC(=O)[C@H](CCCCN)NC(=O)[C@H](NC(=O)[C@H](CO)NC(=O)[C@H](CC(C)C)NC(=O)[C@H](CCCNC(=N)N)NC(=O)[C@@H]2CCCN2C(=O)[C@H](CCCNC(=N)N)NC(=O)[C@@H]2CCC(=O)N2)CCSSCC[C@@H](C(=O)N[C@@H](Cc2ccccc2)C(=O)O)NC1=O [Example 9, pE-R-P-R-L-S-(D-hC)*-K-G-P-Nle-hC*-F-OH] ([pGlu]RPRLS[d(hCys)]KGP[Nle][hCys]F-OH; disulfide 7-12) is ____.
*A* 0.95

====

measurement-protocol: in vitro
experimental-context: rat, plasma, Surrogate activity-based Plasma stability t½
Bridge positions count the residues as written; N and C are the ends. Square brackets hold non-standard residues; d marks the D form. Peptide text beside a SMILES is read from it. pGlu = O=C1CC[C@@H](C(=O)O)N1; d(hCys) = N[C@H](CCS)C(=O)O; dNle = CCCC[C@@H](N)C(=O)O; hCys = N[C@@H](CCS)C(=O)O; Nle = CCCC[C@H](N)C(=O)O; Aib = CC(C)(N)C(=O)O
Category scheme (half-life): band A (below 0.9 h), band B (0.9 h to below 2 h), band C (2 h or more)

CCCC[C@@H]1NC(=O)[C@@H]2CCCN2C(=O)[C@@H](NC(=O)[C@H](CCCCN)NC(=O)[C@@H](C)NC(=O)[C@H](CO)NC(=O)[C@H](CC(C)C)NC(=O)[C@H](CCCNC(=N)N)NC(=O)[C@@H]2CCCN2C(=O)[C@H](CCCNC(=N)N)NC(=O)[C@@H]2CCC(=O)N2)CSSC[C@@H](C(=O)N[C@H](Cc2ccccc2)C(=O)O)NC1=O [Example 16, pE-R-P-R-L-S-a-K-C*-P-Nle-C*-f-OH] ([pGlu]RPRLS[dA]KCP[Nle]C[dF]-OH; disulfide 9-12); band C
CCCC[C@@H]1NC(=O)[C@@H]2CCCN2C(=O)CNC(=O)[C@H](CCCCN)NC(=O)[C@@H](NC(=O)[C@H](CO)NC(=O)[C@H](CC(C)C)NC(=O)[C@H](CCCNC(=N)N)NC(=O)[C@@H]2CCCN2C(=O)[C@H](CCCNC(=N)N)NC(=O)[C@@H]2CCC(=O)N2)CSSCC[C@@H](C(=O)N[C@@H](Cc2ccccc2)C(=O)O)NC1=O [Example 12, pE-R-P-R-L-S-C*-K-G-P-Nle-hC*-F-OH] ([pGlu]RPRLSCKGP[Nle][hCys]F-OH; disulfide 7-12); band B
CCCC[C@H]1NC(=O)[C@@H]2CCCN2C(=O)CNC(=O)[C@H](CCCCN)NC(=O)[C@H](Cc2c[nH]cn2)NC(=O)[C@H](CO)NC(=O)[C@@H](NC(=O)[C@H](CCCNC(=N)N)NC(=O)[C@@H]2CCCN2C(=O)[C@H](CCCNC(=N)N)NC(=O)[C@@H]2CCC(=O)N2)CCSSC[C@@H](C(=O)N[C@H](Cc2ccc(O)cc2)C(=O)O)NC1=O [Example 2, pE-R-P-R-hC*-S-H-K-G-P-(D-Nle)-C*-y-OH] ([pGlu]RPR[hCys]SHKGP[dNle]C[dY]-OH; disulfide 5-12); band A

*Q* In plain terms, what class is CCCC[C@@H]1NC(=O)[C@@H]2CCCN2C(=O)CNC(=O)[C@H](CCCCN)NC(=O)[C@@H](NC(=O)[C@H](CO)NC(=O)[C@H](CC(C)C)NC(=O)[C@H](CCCNC(=N)N)NC(=O)[C@@H]2CCCN2C(=O)[C@H](CCCNC(=N)N)NC(=O)[C@@H]2CCC(=O)N2)CSSC[C@@H](C(=O)N[C@@H](Cc2ccccc2)C(=O)O)NC1=O [Example 3, pE-R-P-R-L-S-C*-K-G-P-Nle-C*-F-OH] ([pGlu]RPRLSCKGP[Nle]CF-OH; disulfide 7-12) ?
*A* band A

*Q* Now try CCCC[C@@H]1NC(=O)[C@@H]2CCCN2C(=O)CNC(=O)[C@H](CCCCN)NC(=O)[C@@H](NC(=O)[C@H](CO)NC(=O)[C@H](CC(C)C)NC(=O)[C@H](CCCNC(=N)N)NC(=O)[C@@H]2CCCN2C(=O)[C@H](CCCNC(=N)N)NC(=O)[C@@H]2CCC(=O)N2)CCSSCC[C@@H](C(=O)N[C@@H](Cc2ccccc2)C(=O)O)NC1=O [Example 13, pE-R-P-R-L-S-hC*-K-G-P-Nle-hC*-F-OH] ([pGlu]RPRLS[hCys]KGP[Nle][hCys]F-OH; disulfide 7-12) .
*A* band B

*Q* Now try CCCC[C@@H]1NC(=O)[C@@H]2CCCN2C(=O)CNC(=O)[C@H](CCCCN)NC(=O)[C@@H](NC(=O)[C@H](CO)NC(=O)[C@H](CC(C)C)NC(=O)[C@H](CCCNC(=N)N)NC(=O)[C@@H]2CCCN2C(=O)[C@H](CCCNC(=N)N)NC(=O)[C@@H]2CCC(=O)N2)CSSC[C@H](C(=O)N[C@@H](Cc2ccccc2)C(=O)O)NC1=O [Example 11, pE-R-P-R-L-S-C*-K-G-P-Nle-c*-F-OH] ([pGlu]RPRLSCKGP[Nle][dC]F-OH; disulfide 7-12) .
*A* band C

*Q* Now try CCCC[C@@H]1NC(=O)[C@@H]2CCCN2C(=O)CNC(=O)[C@H](CCCCN)NC(=O)[C@@H](NC(=O)[C@H](CO)NC(=O)[C@H](CC(C)C)NC(=O)[C@H](CCCNC(=N)N)NC(=O)[C@@H]2CCCN2C(=O)[C@H](CCCNC(=N)N)NC(=O)[C@@H]2CCC(=O)N2)CSSCC[C@H](C(=O)N[C@@H](Cc2ccccc2)C(=O)O)NC1=O [Example 4, pE-R-P-R-L-S-C*-K-G-P-Nle-(D-hC)*-F-OH] ([pGlu]RPRLSCKGP[Nle][d(hCys)]F-OH; disulfide 7-12) .
*A* band A

*Q* Now try CCCC[C@@H]1NC(=O)[C@@H]2CCCN2C(=O)[C@@H](NC(=O)[C@H](CCCCN)NC(=O)C(C)(C)NC(=O)[C@H](CO)NC(=O)[C@H](CC(C)C)NC(=O)[C@H](CCCNC(=N)N)NC(=O)[C@@H]2CCCN2C(=O)[C@H](CCCNC(=N)N)NC(=O)[C@@H]2CCC(=O)N2)CSSC[C@@H](C(=O)N[C@H](Cc2ccccc2)C(=O)O)NC1=O [Example 20, pE-R-P-R-L-S-Aib-K-C*-P-Nle-C*-f-OH] ([pGlu]RPRLS[Aib]KCP[Nle]C[dF]-OH; disulfide 9-12) .
*A* band C

*Q* Now try CCCC[C@@H]1NC(=O)[C@@H]2CCCN2C(=O)CNC(=O)[C@H](CCCCN)NC(=O)[C@H](Cc2c[nH]cn2)NC(=O)[C@H](CO)NC(=O)[C@@H](NC(=O)[C@H](CCCNC(=N)N)NC(=O)[C@@H]2CCCN2C(=O)[C@H](CCCNC(=N)N)NC(=O)[C@@H]2CCC(=O)N2)CSSC[C@@H](C(=O)N[C@@H](Cc2ccccc2)C(=O)O)NC1=O [Example 1, pE-R-P-R-C*-S-H-K-G-P-Nle-C*-F-OH] ([pGlu]RPRCSHKGP[Nle]CF-OH; disulfide 5-12) .
*A* band C

====

Below: a set of entries, each annotated with reported half-life at 5000 ng/mL.
measurement-protocol: Plasma stability assay (LC-MS)
Format: in vitro ADME
experimental-context: male, Sprague-Dawley, heparinized rat plasma, 37° C., Table 3, read-out: Plasma stability t½
Experimental: Working solution: 1 mg/mL test article is prepared in Milli-Q water Extraction solution: Methanol:Acetonitrile:Water (1:1:1) with 0.1% Formic Acid and 400 ng/mL Glyburide. Plasma: Male Sprague-Dawley rat plasma (with sodium heparin), purchased from Bioreclamation LLC (Liverpool, N.Y.). Test article was prepared in one of the following biological matrices: heparinized rat plasma, heparinized rat whole blood or lung homogenate. […]
Bridge positions count the residues as written; N and C are the ends. Square brackets hold non-standard residues; d marks the D form. Peptide text beside a SMILES is read from it. * marks the point of attachment. pGlu = O=C1CC[C@@H](C(=O)O)N1; NHPhenethyl = c1ccc(CCN*)cc1; Nle = CCCC[C@H](N)C(=O)O; Aib = CC(C)(N)C(=O)O

Worked cases, answers included:
CCCC[C@@H]1NC(=O)[C@@H]2CCCN2C(=O)[C@@H](NC(=O)[C@H](CCCCN)NC(=O)C(C)(C)NC(=O)[C@H](CO)NC(=O)[C@H](CC(C)C)NC(=O)[C@H](CCCNC(=N)N)NC(=O)[C@@H]2CCCN2C(=O)[C@H](CCCNC(=N)N)NC(=O)[C@@H]2CCC(=O)N2)CSSC[C@@H](C(=O)NCCc2ccccc2)NC1=O [Example 15] ([pGlu]RPRLS[Aib]KCP[Nle]C-NHPhenethyl; disulfide 9-12); 42 min
CCCC[C@@H]1NC(=O)[C@@H]2CCCN2C(=O)[C@@H](NC(=O)[C@H](CCCCN)NC(=O)[C@H](Cc2c[nH]cn2)NC(=O)[C@@H](C)NC(=O)[C@H](CC(C)C)NC(=O)[C@H](CCCNC(=N)N)NC(=O)[C@@H]2CCCN2C(=O)[C@H](CCCNC(=N)N)NC(=O)[C@@H]2CCC(=O)N2)CSSC[C@@H](C(=O)N[C@H](Cc2ccccc2)C(=O)O)NC1=O [Example 17, pE-R-P-R-L-a-H-K-C*-P-Nle-C*-f-OH] ([pGlu]RPRL[dA]HKCP[Nle]C[dF]-OH; disulfide 9-12); 505 min

Next compound, half-life at 5000 ng/mL to be filled in.
*Q* Fill blank: measured half-life at 5000 ng/mL of the compound CCCC[C@@H]1NC(=O)[C@@H]2CCCN2C(=O)CNC(=O)[C@H](CCCCN)NC(=O)[C@@H](NC(=O)[C@H](CO)NC(=O)[C@H](CC(C)C)NC(=O)[C@H](CCCNC(=N)N)NC(=O)[C@@H]2CCCN2C(=O)[C@H](CCCNC(=N)N)NC(=O)[C@@H]2CCC(=O)N2)CSSC[C@@H](C(=O)N[C@@H](Cc2ccccc2)C(=O)O)NC1=O [Example 3, pE-R-P-R-L-S-C*-K-G-P-Nle-C*-F-OH] ([pGlu]RPRLSCKGP[Nle]CF-OH; disulfide 7-12) is ____.
*A* 81 min
